Test system: gastric secretion in pylorus-ligated Sprague-Dawly rats
Assay: Inhibition of gastric secretion (pylorus-ligated rats, Shay method)
Type: in vivo
Settings: 20 mg/kg intraduodenally, 5 hours, gastric juice amount relative to omeprazole, equation (I)
Method: Test 2: Inhibition of gastric secretion In accordance with the method disclosed in Shay, H., et al., Gastroenterology 5 43-61(1945), Test 2 was carried out. […] Tne gastric juice was centrifuged at 1,000 g to remove precipitates. The amount and acidity of the gastric juice were measured. Relative volumes, relative acid concentrations and relative acid outputs of the test compounds were calculated from equations(I), (II) and (III) and the results are shown in Table 2. […]

compound: Cc1nc(Nc2ccc(F)cc2)nc(N2CCc3cc(O)ccc3C2C)c1C.Cl (centres unmarked)
Relative volume: 1.05
//
compound: COCc1nc(Nc2ccc(F)cc2)nc(N2CCc3ccccc3C2C)c1C.Cl (centres unmarked)
Relative volume: 0.78
//
compound: Cc1nc(Nc2ccc(F)cc2)nc(N2CCc3cc(OC(=O)c4ccc([N+](=O)[O-])cc4)ccc3C2C)c1C (centres unmarked)
Relative volume: 0.62
//
compound: Cc1c(COC(=O)CNC(=O)OC(C)(C)C)nc(Nc2ccc(F)cc2)nc1N1CCc2ccccc2C1C (centres unmarked)
Relative volume: 1.01
//
compound: Cc1c(COC(=O)C2CC2)nc(Nc2ccc(F)cc2)nc1N1CCc2ccccc2C1C (centres unmarked)
Relative volume: 0.79
